Cited source for all entries: patent US9156845B2

Consider the following compounds and their measured IC50 readings.
# study_system: GST-tagged truncated LRRK2 (Homo sapiens (Human))
# Sequence (Q5S007 970-2527): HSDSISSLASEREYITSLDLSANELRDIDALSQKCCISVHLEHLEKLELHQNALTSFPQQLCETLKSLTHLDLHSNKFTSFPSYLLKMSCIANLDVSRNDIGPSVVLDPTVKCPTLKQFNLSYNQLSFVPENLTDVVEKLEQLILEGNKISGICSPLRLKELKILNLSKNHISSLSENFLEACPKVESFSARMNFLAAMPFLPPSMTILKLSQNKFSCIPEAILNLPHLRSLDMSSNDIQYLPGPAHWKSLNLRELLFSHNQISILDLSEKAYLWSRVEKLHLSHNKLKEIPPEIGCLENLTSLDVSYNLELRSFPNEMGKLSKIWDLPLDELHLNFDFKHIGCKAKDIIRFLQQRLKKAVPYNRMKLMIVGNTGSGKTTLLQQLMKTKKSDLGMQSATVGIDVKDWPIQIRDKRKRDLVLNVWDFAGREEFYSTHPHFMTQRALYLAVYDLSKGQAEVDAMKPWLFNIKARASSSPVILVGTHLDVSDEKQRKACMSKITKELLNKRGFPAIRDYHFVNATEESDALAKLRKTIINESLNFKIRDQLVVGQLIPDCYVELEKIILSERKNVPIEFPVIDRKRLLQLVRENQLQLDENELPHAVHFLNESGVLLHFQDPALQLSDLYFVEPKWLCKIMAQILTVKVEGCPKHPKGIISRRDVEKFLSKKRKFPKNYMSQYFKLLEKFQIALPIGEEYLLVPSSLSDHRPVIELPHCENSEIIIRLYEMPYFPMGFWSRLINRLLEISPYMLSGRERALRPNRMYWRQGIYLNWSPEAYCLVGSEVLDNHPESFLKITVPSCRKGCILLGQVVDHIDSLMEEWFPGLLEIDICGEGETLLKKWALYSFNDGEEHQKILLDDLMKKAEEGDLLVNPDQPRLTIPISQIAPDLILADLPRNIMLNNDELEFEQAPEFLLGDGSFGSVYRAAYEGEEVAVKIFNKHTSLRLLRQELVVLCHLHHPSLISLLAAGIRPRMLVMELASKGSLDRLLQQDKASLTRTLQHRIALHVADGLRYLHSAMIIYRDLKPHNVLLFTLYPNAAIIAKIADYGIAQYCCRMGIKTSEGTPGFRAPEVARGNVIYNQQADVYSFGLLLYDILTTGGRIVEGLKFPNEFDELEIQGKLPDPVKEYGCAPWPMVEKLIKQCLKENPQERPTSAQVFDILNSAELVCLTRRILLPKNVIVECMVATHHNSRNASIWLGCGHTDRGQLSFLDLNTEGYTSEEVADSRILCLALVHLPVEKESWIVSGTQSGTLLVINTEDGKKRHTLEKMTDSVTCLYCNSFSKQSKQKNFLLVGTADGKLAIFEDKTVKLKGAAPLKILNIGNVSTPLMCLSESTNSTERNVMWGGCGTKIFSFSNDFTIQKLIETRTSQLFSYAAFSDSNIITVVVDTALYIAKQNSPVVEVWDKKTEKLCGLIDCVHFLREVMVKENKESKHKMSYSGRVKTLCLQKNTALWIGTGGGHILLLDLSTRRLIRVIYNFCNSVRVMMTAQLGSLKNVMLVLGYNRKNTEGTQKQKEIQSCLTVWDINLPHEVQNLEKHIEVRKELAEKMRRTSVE
# assay_summary: LRRK2 Lantha Screen kinase assay
# test_parameters: geometric mean of 2-5 determinations unless otherwise indicated (a: >=6 determinations; b: single determination); read-out: LRRK2 WT IC50
measurement_type: IC50 (nM)

INSERT INTO assay_data (compound, measurement_type, recorded_number) VALUES
  ('C[C@H]1CCCN(c2ncnc3[nH]cc(-c4ccc(O)cc4)c23)C1', 'IC50', 26),
  ('CC(=O)NC1CCN(c2ncnc3[nH]cc(-c4cccc(C#N)c4)c23)CC1', 'IC50', 50),
  ('Cc1ccc(F)cc1-c1c[nH]c2ncnc(N3CCOCC3)c12', 'IC50', 91),
  ('N#Cc1cccc(-c2c[nH]c3ncnc(N4CCCC(F)(F)C4)c23)c1', 'IC50', 79),
  ('Clc1ccccc1-c1c[nH]c2ncnc(N3CCOCC3)c12', 'IC50', 21),
  ('COc1cc(F)cc(-c2c[nH]c3ncnc(N4CCCC(O)C4)c23)c1 (centres unmarked)', 'IC50', 29),
  ('Cn1cc(-c2c[nH]c3ncnc(N4CCSCC4)c23)cn1', 'IC50', 71),
  ('C[C@H]1COCCN1c1ncnc2[nH]cc(-c3cccc(C#N)c3)c12', 'IC50', 44),
  ('N#Cc1cccc(-c2c[nH]c3ncnc(N4CCOC(c5cccc(O)c5)C4)c23)c1 (centres unmarked)', 'IC50', 91),
  ('Cc1[nH]c2ncnc(N3CCOCC3)c2c1-c1cnn(C)c1', 'IC50', 47),
  ('COc1cccc(F)c1-c1c[nH]c2ncnc(N(C)C)c12', 'IC50', 40),
  ('Cc1ccnc(-c2c[nH]c3ncnc(N4CCOCC4)c23)c1', 'IC50', 43),
  ('C[C@H]1CCCN(c2ncnc3[nH]cc(-c4cccc(C#N)c4F)c23)C1', 'IC50', 11),
  ('Cc1noc(C2CN(c3ncnc4[nH]cc(-c5cccc(C#N)c5F)c34)CCO2)n1 (centres unmarked) [Example 166]', 'IC50', 38),
  ('N#Cc1cccc(-c2c[nH]c3ncnc(N4CCC(F)(F)CC4)c23)c1', 'IC50', 67),
  ('COCC1CN(c2ncnc3[nH]cc(-c4cccc(C#N)c4)c23)CCO1 (single isomer, unassigned) [Example 197]', 'IC50', 214),
  ('C[C@H]1CCCN(c2ncnc3[nH]cc(-c4cccc(S(N)(=O)=O)c4)c23)C1', 'IC50', 24),
  ('CN(C)CC1CN(c2ncnc3[nH]cc(-c4cccc(C#N)c4)c23)CCO1 (centres unmarked)', 'IC50', 45),
  ('N#Cc1cccc(-c2c[nH]c3ncnc(N4CCCC(c5cc[nH]n5)C4)c23)c1 (centres unmarked)', 'IC50', 84),
  ('Cn1cc(-c2c[nH]c3ncnc(N4CCCC(F)C4)c23)cn1 (centres unmarked)', 'IC50', 31),
  ('N#Cc1cccc(-c2c[nH]c3ncnc(N4CCC(F)CC4)c23)c1F', 'IC50', 18),
  ('COc1ccc(C#N)cc1-c1c[nH]c2ncnc(N3C[C@H](C)C[C@H](C)C3)c12', 'IC50', 85),
  ('N#Cc1cccc(-c2c[nH]c3ncnc(N4CCC(F)CC4)c23)c1 [Example 33A]', 'IC50', 17),
  ('CN1CCCC(Nc2ncnc3[nH]cc(-c4cccc(C#N)c4)c23)C1 (centres unmarked)', 'IC50', 78),
  ('CN(C)c1ncnc2[nH]cc(-c3cc(C#N)ccc3F)c12', 'IC50', 37),
  ('N#Cc1cccc(-c2c[nH]c3ncnc(N4CCCC5(CNC(=O)C5)C4)c23)c1 (centres unmarked)', 'IC50', 35),
  ('N#Cc1cccc(-c2c[nH]c3ncnc(N4CCC[C@@H](O)C4)c23)c1', 'IC50', 8),
  ('COCC1CCCN(c2ncnc3[nH]cc(-c4cccc(C#N)c4)c23)C1 (centres unmarked)', 'IC50', 95),
  ('C[C@@H]1C[C@H](C)CN(c2ncnc3[nH]cc(-c4cnn(C)c4)c23)C1', 'IC50', 16);
